Hello, the source for this data is the Immune Epitope Database (IEDB), in case you need it.

Molecular target: HLA-A*02:06
Test: IEDB peptide-MHC binding, purified MHC/competitive/radioactivity; filed as Kd, often an IC50 or EC50 that approximates it; bounds were set here for any values at or beyond the usual limits of such assays
Settings: source organism: Mammarenavirus machupoense
measuredParameter: pKd
One number for each entry, as −log10 of the molar value.

**Query** Annotate the sequence LLDCIMYQS with its measured pKd.
**Result** 5.48

----------
Target: HLA-A*02:06
Test: IEDB peptide-MHC binding, purified MHC/competitive/radioactivity; filed as Kd, often an IC50 or EC50 that approximates it; bounds were set here for any values at or beyond the usual limits of such assays
Settings: source organism: Mammarenavirus guanaritoense
pKd: −log10 of the molar value.
measuredParameter: pKd

**Query** Annotate the sequence YVIGLLPQS with its measured pKd.
**Result** ≤ 4.32
